B1: CPEB3 Ribozyme (parent)
chain: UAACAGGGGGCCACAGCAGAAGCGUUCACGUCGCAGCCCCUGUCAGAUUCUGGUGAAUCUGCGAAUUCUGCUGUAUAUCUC

Variants of: B1
experiment: self-cleavage, relative activity (ratio to wild type); higher = more cleavage; in vitro, sequencing
Classify as follows. Reported self-cleavage greater than or equal to 0.2: Criterion met. Reported self-cleavage below: Criterion not met.

Would you please look over these solved cases?
>>> df
   variant_label        label_value
0      A20U G24U  Criterion not met
1      U43A U74A      Criterion met

Does the reported self-cleavage for A21G G61U fall at or above the 0.2 mark?
Criterion met

Say whether U43C A65U shows self-cleavage of 0.2 or more.
Criterion not met

Could you verify whether the entry C11U C68A shows self-cleavage of no less than 0.2?
Criterion not met

Ref: the RNAGym collection of RNA variant scans (doi:10.1093/nar/gkz1192)
